# Target Or Test System: T1, MutS (Pseudomonas aeruginosa, UniProt Q9HY08 1-855)
# T1 sequence: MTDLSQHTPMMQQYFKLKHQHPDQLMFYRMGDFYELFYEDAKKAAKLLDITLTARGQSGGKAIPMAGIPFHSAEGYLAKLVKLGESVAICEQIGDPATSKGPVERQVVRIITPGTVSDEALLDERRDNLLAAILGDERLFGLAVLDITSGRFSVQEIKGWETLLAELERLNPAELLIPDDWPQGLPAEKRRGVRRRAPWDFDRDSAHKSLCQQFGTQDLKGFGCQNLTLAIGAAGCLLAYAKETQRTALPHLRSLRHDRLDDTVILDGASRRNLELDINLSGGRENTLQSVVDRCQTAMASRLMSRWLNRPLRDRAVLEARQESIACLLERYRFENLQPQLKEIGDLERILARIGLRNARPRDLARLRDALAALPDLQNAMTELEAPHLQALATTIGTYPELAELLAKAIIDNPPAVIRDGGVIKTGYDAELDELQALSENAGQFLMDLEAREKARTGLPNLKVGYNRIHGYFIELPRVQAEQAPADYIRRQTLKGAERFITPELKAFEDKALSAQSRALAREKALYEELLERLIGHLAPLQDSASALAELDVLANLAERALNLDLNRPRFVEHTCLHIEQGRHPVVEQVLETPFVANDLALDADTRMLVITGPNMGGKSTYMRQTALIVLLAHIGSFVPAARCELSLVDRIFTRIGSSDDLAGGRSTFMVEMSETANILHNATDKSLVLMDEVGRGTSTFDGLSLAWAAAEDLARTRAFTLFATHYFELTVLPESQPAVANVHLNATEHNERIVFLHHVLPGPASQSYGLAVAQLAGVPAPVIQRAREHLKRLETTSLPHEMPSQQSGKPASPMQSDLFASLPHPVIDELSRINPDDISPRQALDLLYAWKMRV
# Assay Info: SPR
Measure Name: pKd
Please keep in mind that pKd is minus log10 of the molar concentration; only the number is needed.

Quick check: pKd of dsDNA (dsDNA) DNA 1: ATGTGAATCAGTATGGTTACTATCTGCTGAAGGAAAT DNA 2: ATTTCCTTCAGCAGATAGTAACCATACTGATTCACAT ?
5.71
